Where do these numbers come from? They come from PubChem BioAssay (NCI).

Test system: RXF 393 renal
Assay: NCI-60 one-dose screen, 48 h (100 = growth as untreated, 0 = no growth, -100 = all killed)
Details: 10 µM unless noted
This is part of a sample that, as a whole, favours compounds with a hit. Of some 83,000 tested, about 20% had one in any assay. Calls of active or inactive are those of the source. The calls were made as follows: active = growth percent below 10; inactive = the rest.
Items are presented alongside their recorded growth.

Solved cases (3 shown):
CN(C)CCCCNc1ccc(NCCCCN(C)C)c2c1C(=O)c1c(O)ccc(O)c1C2=O: -96% (active)
N=C(N)c1ccc(-c2ccc(-c3ccc(Cl)cc3Cl)o2)cc1: 32.1% (inactive)
CNC(=O)NCC1OC(n2cnc3c(NC(=O)Nc4ccccc4)ncnc32)C2OC(C)(C)OC12 (stereo unspecified): 96.6% (inactive)

Per the records, this compound ( N#C/C(=C\c1ccc(Br)cc1)n1nnc2ccccc21 ) has growth equal to -15.4% (active)

Entry CCOC(=O)c1c(C)nc2c(c1N)/C(=C/c1ccc(OC)cc1)C(=O)N2Cc1ccc(F)cc1 , growth reported as -78.6% (active)

In plain terms, CCN(CC)CC(O)CNc1c2ccc(Cl)cc2nc2ccc(OC)cc12 (stereo unspecified) has a documented growth of -80.8% (active)

Input CN(C)CCOC(=O)Nc1ccc(Cl)cc1 . Output growth: 118% (inactive)

get_value(item= CC(C)OCCCNCC(=O)Nc1ccc(S(=O)(=O)c2ccc(NC(=O)CNCCCOC(C)C)cc2)cc1 , readout=growth) returns 92.8% (inactive)

Consider COc1cccc(-c2nc3sccn3c2-c2ccnc(NCCNS(=O)(=O)c3c(Cl)cccc3Cl)c2)c1 . Its measured growth is 69.9% (inactive)

Reported growth of O=[N+]([O-])c1ccc2[nH]cc(-c3c4ccsc4cc4[nH]c5ccc([N+](=O)[O-])cc5c34)c2c1 : -42.2% (active)

Memo: N#Cc1cnn2c(-c3ccc(Cl)cc3)nc(NC3CC3)nc12 , reported growth: 93.7% (inactive)

get_value(item= OC(CBr)c1ccnc2ccccc12 (stereo unspecified) , readout=growth) returns 107% (inactive)

// Cc1c(Cl)cccc1NS(=O)(=O)c1ccccc1 : growth value = 95.3% (inactive)

In plain terms, CCCCCCCCn1cc(C2=C(c3coc4ccc(OC)cc34)C(=O)NC2=O)c2ccccc21 has a documented growth of 105% (inactive)

Form field growth, entry COc1ccc(-c2cc(-c3ccc(Nc4nc(Nc5ccccc5)nc(Nc5ccc(Cl)cc5)n4)cc3)nc(N)c2C#N)cc1 : -12.1% (active)

So, CCN(CC)CCCC(C)NCc1ccccc1 (stereo unspecified) ? Its growth was 135% (inactive)

Reported growth for C/C(=N\NC(N)=S)c1nc2ccc(Cl)cc2[nH]1 was 48.9% (inactive)

// growth lookup, compound = CN(C)c1ccc(-c2cc(-c3ccc(Nc4nc(Nc5ccccc5)nc(Nc5ccc(Cl)cc5)n4)cc3)nc(N)n2)cc1 , result: 53.8% (inactive)

Looking up O=C(c1ccccc1)c1ccc(Cl)c([N+](=O)[O-])c1 , I found its growth recorded as 104% (inactive)

Recorded growth (compound OC(c1cccc(OCc2ccccc2)c1)c1nnc(-c2ccccc2)o1 (stereo unspecified) ): 95.5% (inactive)

The recorded growth for CO/C(=C1/NC(=O)C(Cc2ccc(O)c(Br)c2)N(C)C(=O)C(C)NC(=O)CCC/C=C(\C)CCC(C)OC1=O)c1ccccc1 (stereo unspecified) is -79.5% (active)

GET /value?item= COc1ccc(/C=C(\C#N)n2nnc3cc(F)c(F)cc32)c(OC)c1OC &field=growth returns 41.1% (inactive)

The compound listed as COc1cc2cc(Oc3ccc(NC(=O)Nc4cc(C(F)(F)F)cc(C(F)(F)F)c4)cc3)c(C)nc2cc1OCCN1CCCCC1 has a reported growth of 31.8% (inactive)

Per the record, Nc1nc(I)c2ncn(C3OC(CO)C(O)C3O)c2n1 (stereo unspecified) has growth of 78.4% (inactive)
